Target: HDM2 (Homo sapiens)
Construct: Thioredoxin (N); made in house; host or cells: E. coli strain BL21(DE3)Rosetta
Experiment: HDM2 FRET assay (inhibition of binding of FITC labeled p53-pocket peptide to HDM2)
Conditions: Table 9; read-out: FRET IC50
Source text: Methods: An HDM2 FRET assay was developed to assess the compounds' inhibitory activity towards binding of p53 protein. […] Protein was purified using Ni-affinity chromatography, followed by size exclusion chromatography using Superdex 75 26/60 column. […] The HDM2 assay buffer contained 1x Phosphate Buffered Saline (Invitrogen, Cat#14190), 0.01% BSA (Jackson ImmunoResearch, Cat# 001-000-162), 0.01% Tween-20. […]
Readout Label: IC50 (nM)
Answer with a number only, understood to be in nM.

Need IC50, item C[C@@H](Nc1nc(C(=O)O)nc2nc(N(C)Cc3ccccc3)n(Cc3ccc(C(F)(F)F)cc3)c12)C1CCC1
5.62

Looking for the measured IC50 of CC(C)C1CCCCN1c1nc2nc(C(=O)O)nc(N[C@H](C)C3CCC3)c2n1Cc1ccc(C(F)(F)F)cc1 (stereo partly shown) , can you help?
9.16

Requested field: IC50. Item: C[C@@H](Nc1nc(C(=O)O)nc2nc(N3CCCC(c4ccccc4)C3)n(Cc3ccc(C(F)(F)F)cc3)c12)C1CCC1 (stereo partly shown)
27.3

Item under review: CC(Nc1nc2nc(-c3noc(=O)[nH]3)nc(N[C@H](C)C3CCC3)c2n1Cc1ccc(C(F)(F)F)cc1)c1ccccn1 (stereo partly shown) . Reported IC50?
8.12

----------
Target: HDM2 (Homo sapiens, UniProt Q00987)
Construct: Thioredoxin (N); made in house; host or cells: E. coli strain BL21(DE3)Rosetta
Sequence (Q00987 17-125): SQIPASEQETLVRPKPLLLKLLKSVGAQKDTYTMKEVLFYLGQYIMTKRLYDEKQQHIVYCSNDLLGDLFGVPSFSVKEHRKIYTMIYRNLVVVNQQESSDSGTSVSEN
Test: HDM2 FRET assay (inhibition of binding of FITC labeled p53-pocket peptide to HDM2)
Settings: 0.5 nM HDM2 (residues 17 to 125), 3nM peptide, two hour incubation at room temperature; read-out: FRET IC50
Description: Methods: An HDM2 FRET assay was developed to assess the compounds' inhibitory activity towards binding of p53 protein. […] Protein was purified using Ni-affinity chromatography, followed by size exclusion chromatography using Superdex 75 26/60 column. […] The HDM2 assay buffer contained 1x Phosphate Buffered Saline (Invitrogen, Cat#14190), 0.01% BSA (Jackson ImmunoResearch, Cat# 001-000-162), 0.01% Tween-20. […]
Please provide measured pIC50 for the entries that follow.
Reminder that pIC50 means the negative base-10 logarithm of the concentration expressed in mol/L.

What reported pIC50 corresponds to C[C@H]1CC[C@H](Cn2c(N3CCOC[C@H]3c3ccc(F)cc3)nc3nc(-c4n[nH]c(=O)o4)nc(-c4cncc(Cl)c4)c32)CC1 on HDM2 (Homo sapiens, UniProt Q00987)?
8.70

Under HDM2 (Homo sapiens, UniProt Q00987): pIC50 value of Cc1cccc(-c2nc(C(=O)O)nc3nc(-c4cc(C(C)C)ccn4)n(C[C@H]4CC[C@H](C)CC4)c23)c1 ?
7.45

Hello, I am looking for reported pIC50 with HDM2 (Homo sapiens, UniProt Q00987) for C[C@@H](Nc1nc(CO)nc2nc(N3CCOC[C@H]3c3ccccc3)n(C[C@H]3CC[C@H](C)CC3)c12)C1CCC1 . Could you help?
7.10

# query: pIC50 | item COc1cc(-c2nc(-c3noc(=O)[nH]3)nc3nc(N4CCOC[C@H]4c4ccccc4)n(C[C@H]4CC[C@H](C)CC4)c23)cc(Cl)n1 | system: HDM2 (Homo sapiens, UniProt Q00987)
8.92

Under HDM2 (Homo sapiens, UniProt Q00987): pIC50 value of C[C@@H](Nc1nc(N2CC(C(=O)O)C(C)(C)C2)nc2nc(N3CCOC[C@H]3c3ccccc3)n(C[C@H]3CC[C@H](C)CC3)c12)C1CCC1 (stereo partly shown) ?
7.02

What measured pIC50 is associated with CC(C)c1ccnc(-c2nc3nc(-c4noc(=O)[nH]4)nc(-c4cccc(Cl)c4)c3n2C[C@H]2CC[C@H](C)CC2)c1 on HDM2 (Homo sapiens, UniProt Q00987)?
7.94

Form entry - test system: HDM2 (Homo sapiens, UniProt Q00987); read-out: pIC50; molecule: CC[C@@H]1COCCN1c1nc2nc(-c3noc(=O)[nH]3)nc(-c3cccc(Cl)c3)c2n1C[C@H]1CC[C@H](C)CC1
7.95
